- Tested on: guinea pig Dopamine Transporter (DAT), gene 100714898
- ASSAY NAME: NVS_TR_gDAT: NovaScreen (NVS) Transporter Assay for guinea pig Dopamine Transporter (DAT) (AID 2283369);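 note: active compounds lower bound radioligand signal relative to DMSO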
Results filed as inconclusive are left out. Active and inactive are the calls of the source. Rule for the calls: active = hit-call score of the fitted dose curve at least 0.9, where 1 is the maximum; inconclusive = response in the unintended direction; inactive = score below 0.9.
Select the correct class. Options are True (active), False (inactive) and nothing else.

Assay result, entry `CCOC(=O)NCCOc1ccc(Oc2ccccc2)cc1` — outcome? True

Just curious, what result did C=CCOC(Cn1ccnc1)c1ccc(Cl)cc1Cl (stereo not given) get here? True

Fill in: this test's call for `O=C(c1ccccc1)C1CCCCC1` is ___ False

What call does the record list for `CC(C)(C)[C@@H](O)[C@@H](Cc1ccc(Cl)cc1)n1cncn1` ? True

So what was the verdict on `Cc1nn(C)c(Oc2ccccc2)c1C=NOCc1ccc(C(=O)OC(C)(C)C)cc1` in this test? False
